Where do these numbers come from? They come from ChEMBL document CHEMBL1135582.

- PROCEDURE TEXT: Selectivity measured as CB2/CB1
MEASURED PROPERTY: Selectivity

Before answering, review these 6 worked examples.
CCNC(=O)c1nn(-c2ccc(Cl)cc2Cl)c(-c2ccc(Cl)cc2)c1C = 67
CCCCNC(=O)c1nn(-c2ccc(Cl)cc2Cl)c(-c2ccc(Cl)cc2)c1C = 119
Cc1c(C(=O)NN)nn(-c2ccc(Cl)cc2Cl)c1-c1ccc(Cl)cc1 = 32
Cc1c(C(=O)NCCO)nn(-c2ccc(Cl)cc2Cl)c1-c1ccc(Cl)cc1 = 11
Cc1c(C(=O)NC2CCCCC2)nn(-c2ccc(Cl)cc2Cl)c1-c1ccc(Cl)cc1 = 93
Cc1c(C(=O)NN2CCOCC2)nn(-c2ccc(Cl)cc2Cl)c1-c1ccc(Cl)cc1 = 105

[1] CCCNC(=O)c1nn(-c2ccc(Cl)cc2Cl)c(-c2ccc(Cl)cc2)c1C
[2] CCCCCCNC(=O)c1nn(-c2ccc(Cl)cc2Cl)c(-c2ccc(Cl)cc2)c1C
[3] Cc1c(C(=O)N[C@H](C)CO)nn(-c2ccc(Cl)cc2Cl)c1-c1ccc(Cl)cc1
[4] Cc1c(C(=O)NC(C)C)nn(-c2ccc(Cl)cc2Cl)c1-c1ccc(Cl)cc1
QUERY: Order by Selectivity, ascending. Answer by listing the labels in the order asked for.
RESULT: 3, 4, 1, 2
